Record form. Attribute: Repellent efficiency (%) per time (minutes). Fill in for each entry.
# Test system: Aedes aegypti
# Assay: Examination of repellent activity using skin test (treated human forearm in cage of about 100 mated female mosquitoes)
# Type: in vivo
# Condition description: 10% (0.25 mg/cm^3), 150 minutes
Numeric answer only, unit % assumed.

State measured Repellent efficiency (%) per time (minutes) of the compound CC(C)=CCC/C(C)=C/C(=O)O with Aedes aegypti.
100

State measured Repellent efficiency (%) per time (minutes) of the compound CCN(CC)C(=O)c1cccc(C)c1 [DEET, N,N-diethyl-m-toluamide, reference compound] with Aedes aegypti.
87.5

State measured Repellent efficiency (%) per time (minutes) of the compound CCC(C)OC(=O)N1CCCCC1CCO (stereo not shown) [Picadirin, reference compound] with Aedes aegypti.
75.0

State measured Repellent efficiency (%) per time (minutes) of the compound CC(C)=CCCC(C)CC(=O)O (racemic) with Aedes aegypti.
100

---

# Test system: Aedes aegypti
# Assay: Examination of repellent activity using skin test (treated human forearm in cage of about 100 mated female mosquitoes)
# Format: in vivo
# Condition description: at the level of 0.25 mg/cm^3
Record form. Attribute: time for which repellent efficiency of 100% was shown. Fill in for each entry.

State measured time for which repellent efficiency of 100% was shown of the compound CCN(CC)C(=O)c1cccc(C)c1 [DEET, N,N-diethyl-m-toluamide, reference compound] with Aedes aegypti.
120 min

State measured time for which repellent efficiency of 100% was shown of the compound CC(C)=CCCC(C)CC(=O)O (racemic) with Aedes aegypti.
150 min

State measured time for which repellent efficiency of 100% was shown of the compound CC(C)=CCC/C(C)=C/C(=O)O with Aedes aegypti.
210 min

---

# Test system: Aedes aegypti
# Assay: Examination of repellent activity using skin test (treated human forearm in cage of about 100 mated female mosquitoes)
# Assay type: in vivo
# Condition description: 10% (0.25 mg/cm^3), 180 minutes
Value type: Repellent efficiency (%) per time (minutes)
Numeric answer only, unit % assumed.

State measured Repellent efficiency (%) per time (minutes) of the compound CCN(CC)C(=O)c1cccc(C)c1 [DEET, N,N-diethyl-m-toluamide, reference compound] with Aedes aegypti.
81.3

State measured Repellent efficiency (%) per time (minutes) of the compound CC(C)=CCC/C(C)=C/C(=O)O [Geranic acid, geranic acid] with Aedes aegypti.
100

State measured Repellent efficiency (%) per time (minutes) of the compound CC(C)=CCCC(C)CC(=O)O (racemic) [Citronellic acid, citronellic acid] with Aedes aegypti.
85.7

State measured Repellent efficiency (%) per time (minutes) of the compound CCC(C)OC(=O)N1CCCCC1CCO (stereo not shown) [Picadirin, reference compound] with Aedes aegypti.
72.5

---

# System: Aedes aegypti
# Assay: Examination of repellent activity using skin test (treated human forearm in cage of about 100 mated female mosquitoes)
# Type: in vivo
# Condition description: 10% (0.25 mg/cm^3), 120 minutes
Value type: Repellent efficiency (%) per time (minutes)
Numeric answer only, unit % assumed.

State measured Repellent efficiency (%) per time (minutes) of the compound CCN(CC)C(=O)c1cccc(C)c1 [DEET, N,N-diethyl-m-toluamide, reference compound] with Aedes aegypti.
100

State measured Repellent efficiency (%) per time (minutes) of the compound CC(C)=CCCC(C)CC(=O)O (racemic) [Citronellic acid, citronellic acid] with Aedes aegypti.
100

State measured Repellent efficiency (%) per time (minutes) of the compound CCC(C)OC(=O)N1CCCCC1CCO (stereo not shown) [Picadirin, reference compound] with Aedes aegypti.
80.0

State measured Repellent efficiency (%) per time (minutes) of the compound CC(C)=CCC/C(C)=C/C(=O)O [Geranic acid, geranic acid] with Aedes aegypti.
100
